Property: pIC50; scope: individual molecules
# Test system: H460
# Test summary: Chemosensitivity, 96 h continuous exposure, MTT assay
# Assay type: cell-based, human
# Measurement context: H460; read-out: Mean IC50 values
Reminder that pIC50 is minus the log10 of a molar concentration.

Molecule	Attribute measured	Recorded value
CC(=O)[O-].CC(=O)[O-].CC(=O)[O-].CC(=O)[O-].CC(=O)[O-].CC(=O)[O-].[Zn+2].[Zn+2].[Zn+2].c1ccc(-c2csc(NCCN(CCNc3nc(-c4ccccn4)cs3)CCNc3nc(-c4ccccn4)cs3)n2)nc1.c1ccc(-c2csc(NCCN(CCNc3nc(-c4ccccn4)cs3)CCNc3nc(-c4ccccn4)cs3)n2)nc1 [[L2Zn3]6+]	pIC50	6.44

Report pIC50 for O=S(=O)([O-])[O-].[Cu+2].[Cu+2].[Cu+2].c1ccc(-c2csc(NCCN(CCNc3nc(-c4ccccn4)cs3)CCNc3nc(-c4ccccn4)cs3)n2)nc1.c1ccc(-c2csc(NCCN(CCNc3nc(-c4ccccn4)cs3)CCNc3nc(-c4ccccn4)cs3)n2)nc1 [[L2Cu3(SO4)]4+] tested on H460.
6.60

Report pIC50 for O=P([O-])([O-])Oc1ccccc1.[Cu+2].[Cu+2].[Cu+2].c1ccc(-c2csc(NCCN(CCNc3nc(-c4ccccn4)cs3)CCNc3nc(-c4ccccn4)cs3)n2)nc1.c1ccc(-c2csc(NCCN(CCNc3nc(-c4ccccn4)cs3)CCNc3nc(-c4ccccn4)cs3)n2)nc1 [[L2Cu3(O3POPh)]4+] tested on H460.
6.70

Report pIC50 for O=S(=O)(O)O.[Zn+2].[Zn+2].[Zn+2].c1ccc(-c2csc(NCCN(CCNc3nc(-c4ccccn4)cs3)CCNc3nc(-c4ccccn4)cs3)n2)nc1.c1ccc(-c2csc(NCCN(CCNc3nc(-c4ccccn4)cs3)CCNc3nc(-c4ccccn4)cs3)n2)nc1 [[L2Zn3(SO4)]4+] tested on H460.
6.63

----------
Property: IC50; scope: individual compounds
# Test system: HCT116 p53+/+
# Test summary: Chemosensitivity, 96 h continuous exposure, MTT assay
# Type: cell-based, human
# Measurement context: HCT116 p53+/+, 96 h, MTT, mean of at least 3 independent experiments; read-out: Mean IC50
Your answer is read as µM, so omit the unit and give the number.

Completed entries (count: 2):
Compound	IC50 [µM]
N.N.O=C([O-])C1(C(=O)[O-])CCC1.[Pt+2] [Carboplatin, carboplatin, reference compound]	32.4
N.N.[Cl][Pt][Cl] [Cisplatin, cisplatin, reference compound]	3.26

# IC50 lookup, item O=C1[O][Pt]2([NH][C@@H]3CCCC[C@H]3[NH]2)[O]C1=O [Oxaliplatin, oxaliplatin, reference compound]
0.93

# IC50 lookup, item CC(=O)[O-].CC(=O)[O-].CC(=O)[O-].CC(=O)[O-].CC(=O)[O-].CC(=O)[O-].[Zn+2].[Zn+2].[Zn+2].c1ccc(-c2csc(NCCN(CCNc3nc(-c4ccccn4)cs3)CCNc3nc(-c4ccccn4)cs3)n2)nc1.c1ccc(-c2csc(NCCN(CCNc3nc(-c4ccccn4)cs3)CCNc3nc(-c4ccccn4)cs3)n2)nc1 [[L2Zn3]6+]
0.466

# IC50 lookup, item [Mn+2].[Mn+2].[Mn+2].c1ccc(-c2csc(NCCN(CCNc3nc(-c4ccccn4)cs3)CCNc3nc(-c4ccccn4)cs3)n2)nc1.c1ccc(-c2csc(NCCN(CCNc3nc(-c4ccccn4)cs3)CCNc3nc(-c4ccccn4)cs3)n2)nc1 [[L2Mn3]6+]
1.32

# IC50 lookup, item [Cu+2].[Cu+2].[Cu+2].c1ccc(-c2csc(NCCN(CCNc3nc(-c4ccccn4)cs3)CCNc3nc(-c4ccccn4)cs3)n2)nc1.c1ccc(-c2csc(NCCN(CCNc3nc(-c4ccccn4)cs3)CCNc3nc(-c4ccccn4)cs3)n2)nc1 [[L2Cu3]6+]
0.496

----------
Property: Selectivity index (ARPE19); scope: individual compounds
# System: HT-29
# Test summary: Chemosensitivity, 96 h continuous exposure, MTT assay
# Format: cell-based, human
# Measurement context: IC50 ARPE-19 / IC50 HT29
Just the number, please, no unit attached.

Compound	Selectivity index (ARPE19)
CC(=O)[O-].CC(=O)[O-].CC(=O)[O-].O=P([O-])([O-])[O-].[Zn+2].[Zn+2].[Zn+2].c1ccc(-c2csc(NCCN(CCNc3nc(-c4ccccn4)cs3)CCNc3nc(-c4ccccn4)cs3)n2)nc1.c1ccc(-c2csc(NCCN(CCNc3nc(-c4ccccn4)cs3)CCNc3nc(-c4ccccn4)cs3)n2)nc1 [[L2Zn3(PO4)]3+]	612.01

Read the next record carefully.
# Selectivity index (ARPE19) lookup, item O=S(=O)([O-])[O-].[Cu+2].[Cu+2].[Cu+2].c1ccc(-c2csc(NCCN(CCNc3nc(-c4ccccn4)cs3)CCNc3nc(-c4ccccn4)cs3)n2)nc1.c1ccc(-c2csc(NCCN(CCNc3nc(-c4ccccn4)cs3)CCNc3nc(-c4ccccn4)cs3)n2)nc1 [[L2Cu3(SO4)]4+]
639.95

----------
# Tested on: A549
# Test summary: Chemosensitivity, 96 h continuous exposure, MTT assay
# Assay type: cell-based, human
# Measurement context: ratio of SI (ARPE-19), A549
Attribute measured: Selectivity indices relative to ARPE-19, Ratio + anion:no anion

Molecule	Study system	Recorded value
O=P([O-])([O-])Oc1ccccc1.[Cu+2].[Cu+2].[Cu+2].c1ccc(-c2csc(NCCN(CCNc3nc(-c4ccccn4)cs3)CCNc3nc(-c4ccccn4)cs3)n2)nc1.c1ccc(-c2csc(NCCN(CCNc3nc(-c4ccccn4)cs3)CCNc3nc(-c4ccccn4)cs3)n2)nc1 [[L2Cu3(O3POPh)]4+]	A549	0.299

# Selectivity indices relative to ARPE-19, Ratio + anion:no anion lookup, item CC(=O)[O-].CC(=O)[O-].CC(=O)[O-].O=P([O-])([O-])[O-].[Zn+2].[Zn+2].[Zn+2].c1ccc(-c2csc(NCCN(CCNc3nc(-c4ccccn4)cs3)CCNc3nc(-c4ccccn4)cs3)n2)nc1.c1ccc(-c2csc(NCCN(CCNc3nc(-c4ccccn4)cs3)CCNc3nc(-c4ccccn4)cs3)n2)nc1 [[L2Zn3(PO4)]3+]
0.670

# Selectivity indices relative to ARPE-19, Ratio + anion:no anion lookup, item O=S(=O)([O-])[O-].[Cu+2].[Cu+2].[Cu+2].c1ccc(-c2csc(NCCN(CCNc3nc(-c4ccccn4)cs3)CCNc3nc(-c4ccccn4)cs3)n2)nc1.c1ccc(-c2csc(NCCN(CCNc3nc(-c4ccccn4)cs3)CCNc3nc(-c4ccccn4)cs3)n2)nc1 [[L2Cu3(SO4)]4+]
0.783

# Selectivity indices relative to ARPE-19, Ratio + anion:no anion lookup, item [Cu+2].[Cu+2].[Cu+2].c1ccc(-c2csc(NCCN(CCNc3nc(-c4ccccn4)cs3)CCNc3nc(-c4ccccn4)cs3)n2)nc1.c1ccc(-c2csc(NCCN(CCNc3nc(-c4ccccn4)cs3)CCNc3nc(-c4ccccn4)cs3)n2)nc1 [[L2Cu3]6+]
1

# Selectivity indices relative to ARPE-19, Ratio + anion:no anion lookup, item CC(=O)[O-].CC(=O)[O-].CC(=O)[O-].CC(=O)[O-].CC(=O)[O-].CC(=O)[O-].[Zn+2].[Zn+2].[Zn+2].c1ccc(-c2csc(NCCN(CCNc3nc(-c4ccccn4)cs3)CCNc3nc(-c4ccccn4)cs3)n2)nc1.c1ccc(-c2csc(NCCN(CCNc3nc(-c4ccccn4)cs3)CCNc3nc(-c4ccccn4)cs3)n2)nc1 [[L2Zn3]6+]
1

# Selectivity indices relative to ARPE-19, Ratio + anion:no anion lookup, item O=P(O)(O)Oc1ccccc1.[Zn+2].[Zn+2].[Zn+2].c1ccc(-c2csc(NCCN(CCNc3nc(-c4ccccn4)cs3)CCNc3nc(-c4ccccn4)cs3)n2)nc1.c1ccc(-c2csc(NCCN(CCNc3nc(-c4ccccn4)cs3)CCNc3nc(-c4ccccn4)cs3)n2)nc1 [[L2Zn3(O3POPh)]4+]
0.798

# Selectivity indices relative to ARPE-19, Ratio + anion:no anion lookup, item O=P([O-])([O-])[O-].[Cu+2].[Cu+2].[Cu+2].c1ccc(-c2csc(NCCN(CCNc3nc(-c4ccccn4)cs3)CCNc3nc(-c4ccccn4)cs3)n2)nc1.c1ccc(-c2csc(NCCN(CCNc3nc(-c4ccccn4)cs3)CCNc3nc(-c4ccccn4)cs3)n2)nc1 [[L2Cu3(PO4)]3+]
0.595

# Selectivity indices relative to ARPE-19, Ratio + anion:no anion lookup, item O=S(=O)(O)O.[Zn+2].[Zn+2].[Zn+2].c1ccc(-c2csc(NCCN(CCNc3nc(-c4ccccn4)cs3)CCNc3nc(-c4ccccn4)cs3)n2)nc1.c1ccc(-c2csc(NCCN(CCNc3nc(-c4ccccn4)cs3)CCNc3nc(-c4ccccn4)cs3)n2)nc1 [[L2Zn3(SO4)]4+]
0.745
